Just for reference, ChEMBL document CHEMBL1156829 is where these values come from.

- System: Plasmodium falciparum
- METHOD SUMMARY: NOVARTIS: Inhibition of Plasmodium falciparum W2 (drug-resistant) proliferation in erythrocyte-based infection assay
- Format: functional, organism-based
- SETTINGS: Plasmodium falciparum, W2; read-out: EC50
MEASUREMENT LABEL: EC50

MOLECULE	EC50
CN(C)CCNC(=O)c1cc2c(-c3ccc(Cl)cc3)nn(C)c2s1	422 nM
CC(=O)Nc1ccc(NC2=CC(=NS(=O)(=O)c3ccccc3)c3ccccc3C2=O)cc1	466 nM
CCC(c1nc2ccccc2c(=O)n1-c1ccc(F)c(Cl)c1)N(CCc1ccccc1)C(=O)COc1ccccc1 (centres undefined)	> 492 nM
CCCCN(C)C(=O)c1sc2ncn(CC(=O)N(CC)CC)c(=O)c2c1C	> 1010 nM
CC(C)NC(=O)c1ccc2c(c1)N=C(/C=C/c1ccccc1)N(CC1CCCCC1)C2	696 nM

// switching to the query molecule
get_value(item= Cc1nc2cc(-c3ccc(I)cc3)nn2c(O)c1C , readout=EC50) returns 1540 nM

----------
- Tested on: Plasmodium falciparum
- METHOD SUMMARY: NOVARTIS: Inhibition of Plasmodium falciparum 3D7 (drug-susceptible) proliferation in erythrocyte-based infection assay
- Format: functional, organism-based
- SETTINGS: Plasmodium falciparum, 3D7
MEASUREMENT LABEL: EC50 (nM)
Provide only the numeric value, understood in nM.

Recorded result, Cc1ccc(C)c(S(=O)(=O)N=C2C=C(SCC(=O)O)C(=O)c3ccccc32)c1 , EC50: 3600

Input COc1cc(OC)cc(C(=O)NCc2n[nH]c(=S)n2-c2cccc(C(F)(F)F)c2)c1 . Output EC50: 258

Looking up O=C(Nc1ccc2oc(-c3ccc(I)cc3)nc2c1)c1ccc([N+](=O)[O-])o1 , I see its EC50 listed as 3160

Recorded EC50 (compound COc1cc(C=C(C#N)c2nc3ccccc3[nH]2)ccc1OCc1ccccc1F ): 1380

The compound listed as BrC(Br)(Br)c1ncc(-c2ccccc2)cn1 shows EC50 equal to 43.3

----------
- Tested on: Plasmodium falciparum
- METHOD SUMMARY: NOVARTIS: Inhibition of Plasmodium falciparum 3D7 (drug-susceptible) proliferation in erythrocyte-based infection assay
- Format: functional, organism-based
- SETTINGS: Plasmodium falciparum, 3D7
MEASUREMENT LABEL: EC50

Examples from the recorded data:
COMPOUND	MEASUREMENT LABEL	VALUE OBSERVED
CC(=NNC(=S)N(C)C)c1ccccn1	EC50	311 nM
CCC(C)(C)c1ccc(OCCCC[n+]2cccc(C)c2C)c(C(C)(C)CC)c1	EC50	495 nM
C/C=C/C(C(=O)NCCCC)N1C(=O)c2cc(NC(C)=O)ccc2NC(=O)[C@@H]1CCC(=O)O (stereo not given in full)	EC50	> 1500 nM
COc1ccc(OC)c(-c2ccc(O)c(CNCC3(N4CCCCC4)CCCCC3)c2)c1	EC50	43.7 nM
COc1ccccc1N1CCN(C(=O)Nc2ccc3ccccc3c2)CC1	EC50	> 1280 nM
CN1CCN(C(=S)NC(=O)/C=C/c2ccc(F)cc2)CC1	EC50	> 1250 nM
CC(=O)N(C1=C(N(C)C)C(=O)c2ccccc2C1=O)c1cccc(F)c1	EC50	13.5 nM
Oc1cccc(-c2cncc(-c3cccnc3)n2)c1	EC50	1300 nM
COC(=O)c1sc2nc(CN3CCC(C)CC3)ccc2c1NC(=O)c1ccc(C)s1	EC50	9700 nM
COC(=O)[C@@H]1C[C@@H](NC(=O)c2ccc(OC)cc2OC)CN1Cc1ccc(C)cc1C	EC50	303 nM

Quick note, EC50 for O=C(Cc1ccccc1)Nc1ccc(C(=O)Nc2ccc(-c3nc4ccc(NC(=O)c5ccc(NC(=O)Cc6ccccc6)cc5)c(Cl)c4[nH]3)cc2)cc1 landed at 8000 nM

Per the record, Cc1cc(Nc2ccc(Br)cc2)nc2ccccc12 has EC50 of > 1250 nM

The measured EC50 associated with Cc1cccc(Nc2ccccc2C(=O)OCC(=O)N2CC(=O)Nc3ccccc32)c1C reads 4710 nM

----------
- METHOD SUMMARY: NOVARTIS: Cytotoxicity against human hepatocellular carcinoma cell line (Huh7)
- Type: toxicity, cell-based, Huh-7
- SETTINGS: Huh7 cells (hepatocellular carcinoma cell line)
We begin with a simple list: items and their reported log10 of CC50.
Recorded CC50 (log10, µM)

Illustrative cases are given below, each with its answer.
COMPOUND	VALUE OBSERVED
N=c1n(CCN2CCCCC2)c2ccccc2n1CC(O)c1ccc(Cl)c(Cl)c1 (centres undefined)	1.11
Cc1ccccc1N=Nc1ccc(NC(=O)c2ccco2)c(C)c1	1.86

Entry under test: CC[C@@]1(O)C[C@H](O[C@@H]2CC(N(C)C)[C@@H](O[C@@H]3C[C@@H](O)[C@@H](O[C@@H]4CCC(=O)[C@@H](C)O4)C(C)O3)[C@@H](C)O2)c2c(cc3c(c2O)C(=O)c2c(O)ccc(O)c2C3=O)[C@H]1C(=O)OC (some centres undefined) . Its log10 of CC50 was 0.53

Entry O=c1c2c3c(sc2ncn1CCCc1ccccc1)CC(N1CCC(N2CCCCC2)CC1)CC3 (centres undefined) , log10 of CC50 reported as 1.17

The compound listed as c1ccc2c(c1)CSc1sccc1C2=C1CCNCC1 has a reported log10 of CC50 of 1.12

Measured log10 of CC50 of CCOC(=O)C1=C(C)NC2=C(C(=O)CC(C)(C)C2)C1c1ccc(Cl)cc1Cl (centres undefined) : 1.82

// recorded log10 of CC50 for OC(CNC1CCCCC1)Cn1c2ccccc2c2ccccc21 (centres undefined) : 1.26

Data point: FC(F)(F)c1ccccc1NC(=S)N1CCCN(c2nc3ccc(Cl)cc3s2)CC1 ; log10 of CC50 = 1.89

The recorded log10 of CC50 for CCN1c2ccccc2N(C)C1(C)c1ccccc1 (centres undefined) is 1.46

----------
- Test system: Plasmodium falciparum
- METHOD SUMMARY: NOVARTIS: Inhibition of Plasmodium falciparum W2 (drug-resistant) proliferation in erythrocyte-based infection assay
- Format: functional, organism-based
- SETTINGS: Plasmodium falciparum, W2; read-out: EC50
Listed next: entries and their corresponding log10 EC50.
Record value = log10 of EC50 given in nM.

Example entries begin here.
MOLECULE	VALUE OBSERVED
COc1ccc(-c2c[n+](CC(=O)c3ccccc3)c3n2CCC3)cc1	2.76
CCOc1cc2c(cc1OCC)C(c1cc(OC)c(O)cc1Cl)NCC2 (stereo not given)	1.98

Quick note, log10 EC50 for COC(=O)c1cccc(-c2cc(Cl)c3c(c2)CC(CNC(=O)c2c(C)noc2C)O3)c1 (stereo not given) landed at 2.90

So, COc1cccc(Cn2c3cc(C)sc3c3cnn(C)c(=O)c32)c1 ? Its log10 EC50 was 2.77

Entry O=C(O)C=CC(=O)N(C1CCCCC1)C1CCCCC1 ; log10 EC50 = 3.27

// recorded log10 EC50 for COc1ccc(C(C)=O)cc1N1C(=O)C2C(C1=O)C1(c3ccccc3)C(=O)C2(c2ccccc2)C(c2ccc(C)cc2)=C1c1ccc(C)cc1 (stereo not given) : 3.26

The measured log10 EC50 associated with CCc1ccc(Nc2cc(C)nc3nc(C)nn23)cc1 reads 2.89

----------
- METHOD SUMMARY: NOVARTIS: Cytotoxicity against human hepatocellular carcinoma cell line (Huh7)
- Format: toxicity, cell-based, Huh-7
- SETTINGS: Huh7 cells (hepatocellular carcinoma cell line)
MEASUREMENT LABEL: CC50

A selection of reference data follows.
COMPOUND	CC50
COC(=O)c1ccc(N(C(=O)Cc2c[nH]c3ccccc23)C(C(=O)NC2CCCCC2)c2cccnc2)cc1 (configuration not stated)	> 100 µM
COc1cccc(/C=C2/SC(=Nc3ccccc3)NC2=O)c1OC	> 10 µM
COc1cccc2cc(-c3csc(NC(=O)CCC(=O)NC4CCCC4)n3)c(=O)oc12	> 10 µM

Lookup result for O=c1nc(C=Cc2ccc(Cl)cc2)oc2ccccc12 ; measured CC50: > 100 µM

Reported CC50 ( CCOC(=O)C1=CN(C)C=C(C(=O)OCC)C1c1cc(Br)c(OCC)c(OC)c1 ) = > 100 µM

The compound identified as Cc1ccc(C(C(=O)NC2CCCCC2)N(C(=O)Cn2nnc3ccccc32)c2ccc(S(=O)(=O)NCC3CCCO3)cc2)o1 (configuration not stated) registered its CC50 at > 100 µM

Looking up Cc1c(C)n(Cc2ccc(F)cc2)c2ccc(C(=O)NCc3ccco3)cc12 , I found its CC50 recorded as > 100 µM

Just so you know, measured CC50 for Cc1nccn1CC(C)C(=O)N1CCCC(n2nc(-c3cccs3)ccc2=O)C1 (configuration not stated) came out at > 10 µM

The recorded CC50 for entry CCOc1ccc(-n2c(=S)sc3c(=O)n(-c4ccc(C)cc4)c(SCC(=O)Nc4cc(OC)ccc4OC)nc32)cc1 equals > 100 µM

Lab note: Clc1ccc(-c2csc3ncnc(NCc4ccncc4)c23)cc1 gave CC50 of > 100 µM

Measured CC50, c1ccc(-c2ccnc3c2ccc2c(-c4ccccc4)ccnc23)cc1 : > 100 µM
